- protocolDescription: protease stability score; higher = more stable; yeast display proteolysis, trypsin and chymotrypsin;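 further: relative to predicted unfolded state with 0 unfolded-like and 1 meaning tenfold more protease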
// protease stability score lookup, one value per entry

- orderedResidues: "SEEEEIVEKMARDLFEAMRTGDEDTLLKLLDPNVKHHWNGVEYHGWHDLHHWVERFKNMKVHFRINSVKVIGEKVHIKGELNLIFNGKIIRTDVDIHINLFNGRIKESTSDTN"
  protease stability score: 2.04
- orderedResidues: "SEEHEEAEHWVRLFIEFMLTGDFDEYRQLMDPNDYIEVGDKSLIGMENWHHLLNRVKNLTIRVKRVRVRVVNGRIHVEMDVRDIINGQEVETRIEMVAVKVNGRWLLKTVHLERE"
  protease stability score: 1.74
- orderedResidues: "TEDWELMKKAMEDLSRDLSTGDFERINRMLDPHTKLVVGDKEHHGMHAWEIFVKRIDHERSVEVRHFRIIGDKIDIDGTLHAEYGEKRITLKVHIIDSKVNGKWVIEVLSFK"
  protease stability score: 1.4
- orderedResidues: "SEEEHLFEFVIRVIYHAMKTGDWEFWERYLDPHVRYQQGDKEHHGRKMTLHYLERLSDELGVTRIEVDLKHIHVYNGRVEIIGELNINGRRTEVRITSEKINGRWTVKELHIV"
  protease stability score: 1.55
- orderedResidues: "SEHEHSSRIAIELLLKTLKTGDERKIEENFDPNVRLIFEGRHIVGREEVFQHIHHLAHELRIEDMKIRRVEHVNGRIHIDLHVVIEINGQRIETDSHMVILKIDGKWKIELLEWR"
  protease stability score: 1.61
- orderedResidues: "DEVERDSELALREFYHAFRTGDEHTLVDLADPRTLTIWNGVELHGREEMKRLWHKVKNITVHDHHIDHERLIGNFVYMDVTIDGTFNGRRYRVRSHMVILKINGKWLYEKQHYE"
  protease stability score: 1.16

---

- protocolDescription: protease stability score; higher = more stable; yeast display proteolysis, trypsin and chymotrypsin;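 further: relative to predicted unfolded state with 0 unfolded-like and 1 meaning tenfold more protease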
// protease stability score lookup, one value per entry

- orderedResidues: "DEETEIEKHAMEHIFRANETGNWREILEMIDPNVKIEYGDKERHGMTIYLEILELWGITKIHLDIQSIRVINGRMDIHGRIVFNGKTHTVDLHLLKVDGRWILTEIRVR"
  protease stability score: 1.3
- orderedResidues: "SEDDEEVRIALDIQRELFRTGDWRSIEEFLDPNVRVHVGDKEIHGMEELLRYYTHIMNHLGAKHWHVTEYTSIGDFVHIDGEFIQGDKTFHLKIHLLKFNGRWIIHSRIID"
  protease stability score: 1.22
- orderedResidues: "REEEHAMKSMIDLWIESMNTGDERSISEMADPNAKNRVGDKTFVGMELLSHILFKLVKELGVRIEDHKIHDIKVQGDKIVSHVRLHLKYGDKEEDHETIIYTRKINGRWLIERVEVI"
  protease stability score: 1.53
- orderedResidues: "DETRELLDRLWERLVKALRTGDEDHVHDMLDPHVRIEIGDKILHGREALEVLWKRIDHISIHDFKLKRERRFENRIEVDGEVDGIVRIDGRENRHVTDTHYILVKIDGQWLIKTIHIK"
  protease stability score: 2.29
- orderedResidues: "SDHEHMILHYARHVLELWFTGDWEIFEKLADPRAKMTVNGQELHGRESVSKWMHDKKEEIRMRDLRIHHIDVQGDFVILHLRVDFEVNGQRIDTHIEIYILVVNGQLREIEIREK"
  protease stability score: 0.853
- orderedResidues: "SEEEELARQVLELWIHWYQTGDEESFRKNIDPHTRFDINGKHLHGREHVSKHLHDRAREMRIHDVFIKDVRLQGEKARMDGVIDGTIGDKRHEFKVEVTVQSINGRIDHLEFRFR"
  protease stability score: 1.18
